# Tested on: OVCAR-3 ovarian
# runDescription: NCI tumour cell line growth inhibition, 48 h
# maps each entry to its TGI
experimentalEndpoint: TGI (µM)

compoundstructurestring=Cn1c(N/N=C/c2ccccc2)nc(-c2ccc3c(c2)OCO3)c(C#N)c1=O experimentalendpoint=TGI censoringsign== numericresult=90.6
compoundstructurestring=Cc1ccc(S(=O)(=O)NC(=O)C2S(=O)(=O)OCCOS2(=O)=O)cc1 experimentalendpoint=TGI censoringsign=> numericresult=100
compoundstructurestring=Cc1c2cnccc2c(C)c2c1c1cc(O)ccc1n2C(C)C experimentalendpoint=TGI censoringsign== numericresult=6.86
compoundstructurestring=CC1(C)OB(c2ccc(N(CCOS(C)(=O)=O)CCOS(C)(=O)=O)cc2)OC1(C)C experimentalendpoint=TGI censoringsign== numericresult=45.3

----------
# Tested on: RPMI-8226 leukemia
# runDescription: NCI tumour cell line growth inhibition, 48 h; in the data active = GI50 below about 0.43 µM; inactive = the rest
Classes used: active, inactive

compound="C[C@@H]1CC[C@H]2[C@@H](C)C(O)O[C@@H]3O[C@]4(C)CC[C@@H]1[C@]32OO4 (stereo partly drawn)" classassignment=active
compound=Cc1cc(S(=O)(=O)/N=C(\N)Nc2cccc(O)c2)c(SCc2ccccc2)cc1Cl classassignment=inactive
compound="C[C@@H](O)[C@@H](C)Oc1nc(Nc2ccc(S(=N)(=O)C3CC3)cc2)ncc1C(F)(F)F (stereo partly drawn)" classassignment=active
compound=C1=N[C@]23C(=N[C@H](N=C2NCc2ccco2)[C@]24N=CNC2=N[C@H]3N=C4NCc2ccco2)N1 classassignment=inactive
compound=CCOC(=O)/C(=C/CC/C(C)=C/CC/C(C)=C/CCc1ccoc1)CC(=O)N1CCCCC1 classassignment=inactive
compound=NC(N)=NN=c1c(=O)c2ccccc2c1=O classassignment=inactive
compound="Cc1nc2ccccn2c1NC(=O)NN1C(=O)CSC1c1ccc(Cl)cc1 (stereo not drawn)" classassignment=inactive
compound=Cc1nnc(C[C@@H]2C=C(c3ccc(Cl)cc3)c3ccccc3-n3c(C)nnc32)o1 classassignment=active

----------
# maps each entry to its TGI
# Tested on: NCI-H522 lung
# runDescription: NCI tumour cell line growth inhibition, 48 h
experimentalEndpoint: TGI

compound="C#CCN(N=O)C(=O)NC(CCCCNC(=O)OCc1ccccc1)C(=O)OCc1ccccc1 (configuration not stated)" result="31.7 µM"
compound=CON(C)c1nc(N)c(C#N)c(C#N)c1C#N result="> 10 µM"
compound="COC(=O)C(=O)C(CC(=O)Nc1cc(Cl)ccc1Cl)C(=O)OC (configuration not stated)" result="> 100 µM"
compound=O=C(NCCCCCCCCCCCCNC(=O)c1cnc2ccccc2n1)c1cnc2ccccc2n1 result="> 100 µM"
compound=CCOC(=O)NN(C(=O)OCC)c1ccc(N=Nc2ccc(OC)cc2)n1C result="60.4 µM"
compound=C[C@@H](Nc1nc(N[C@H](C)C(F)(F)F)nc(-c2cccc(Cl)n2)n1)C(F)(F)F result="> 100 µM"
compound=CCOC(=O)Oc1cc2ccsc2c2c1c1ccccc1n2C(=O)OCC result="> 100 µM"

----------
# maps each entry to its TGI
# Test system: SF-295 CNS
# runDescription: NCI tumour cell line growth inhibition, 48 h
experimentalEndpoint: TGI (µM)

molecule=O=C(COc1ccc(/C=C2\Oc3ccc4ccccc4c3C2=O)cc1)c1ccc([N+](=O)[O-])cc1 targetortestsystem="SF-295 CNS" censoringsign== numericresult=36.4
molecule=COc1c(C)c(C/C=C(\C)CC/C=C(\C)CC/C=C(\C)CCC=C(C)C)c(OC)c(OC)c1OC targetortestsystem="SF-295 CNS" censoringsign=> numericresult=100
molecule=Oc1ccc2ccccc2c1CCc1c(O)ccc2ccccc12 targetortestsystem="SF-295 CNS" censoringsign== numericresult=28.7
molecule="c1ccc(-c2csc3c2-n2cccc2C3N2CCCC2)cc1 (stereo not drawn)" targetortestsystem="SF-295 CNS" censoringsign=> numericresult=100
molecule="C/C=C1\\CC(C(=O)OCC)CCCCCCC1=O (stereo not drawn)" targetortestsystem="SF-295 CNS" censoringsign=> numericresult=100
molecule=O/N=C1/CCCC/C1=C/C=C/c1ccccc1 targetortestsystem="SF-295 CNS" censoringsign== numericresult=69.8
molecule=COc1ccc(-n2cc(-c3cc(OC)c(OC)c(OC)c3)nc2SCc2ccc(Cl)cc2)cc1OC targetortestsystem="SF-295 CNS" censoringsign=> numericresult=100
molecule=COc1cc(/C=C/C(=O)c2cccc3ccccc23)cc(OC)c1OC targetortestsystem="SF-295 CNS" censoringsign== numericresult=22.2
